Cited source for all entries: patent US12037324B2

Each entry below carries its recorded EC50.
target: AGTR1 (Homo sapiens, UniProt P30556); construct: host or cells: Pathunter CHO-K1 AGTR1 β-arrestin cell line (CHO-K1); assay: DiscoveRx β-arrestin2 recruitment assay (enzyme complementation, Pathunter CHO-K1 AGTR1 β-arrestin cell line); assay type: cell-based; details: DiscoveRx β-arrestin2 recruitment
Sequence (P30556 whole entry): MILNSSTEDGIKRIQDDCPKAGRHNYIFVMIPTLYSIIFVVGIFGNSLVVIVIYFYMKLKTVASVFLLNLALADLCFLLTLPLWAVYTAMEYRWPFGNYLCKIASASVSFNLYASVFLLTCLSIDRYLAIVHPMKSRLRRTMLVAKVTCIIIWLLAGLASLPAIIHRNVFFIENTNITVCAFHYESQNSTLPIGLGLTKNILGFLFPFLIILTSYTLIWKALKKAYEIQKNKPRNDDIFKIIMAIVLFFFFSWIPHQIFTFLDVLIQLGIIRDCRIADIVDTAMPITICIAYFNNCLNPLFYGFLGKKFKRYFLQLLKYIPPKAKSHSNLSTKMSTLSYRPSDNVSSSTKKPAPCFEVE
Kindly provide the numeric value in nM only, without the unit symbol.

Some molecules with recorded EC50:
[
  {
    "Molecule": "CCc1nc2c(C)cc(C)nc2n1Cc1ccc(-c2cc(-c3cccc(C)c3)ccc2-c2nn[nH]n2)c(F)c1",
    "Unit Abbreviation": "nM",
    "Observed Value": 9.8
  },
  {
    "Molecule": "CCCCC(=O)N(Cc1ccc(-c2cc(-c3ccccc3)ccc2-c2nn[nH]n2)nc1)C1(C(=O)O)CCCCC1",
    "Unit Abbreviation": "nM",
    "Observed Value": 21.4
  },
  {
    "Molecule": "CCc1nc2c(C)cc(C)nc2n1Cc1ccc(-c2cc(Oc3nccs3)ccc2-c2nn[nH]n2)cc1",
    "Unit Abbreviation": "nM",
    "Observed Value": 34.3
  }
]

Next molecule, EC50 to be filled in.
In plain terms, CCC1=NC2(CCOC2)C(=O)N1Cc1ccc(-c2cc(-c3cccc(C)c3)ccc2-c2nnn[nH]2)cc1 (single isomer, unassigned) [Example 166] has a documented EC50 of 23.1

---

biological target: hAT1R (Homo sapiens); test: cell-based; settings: section of the 42nd table ending at r951, example numbering restarts after the DiscoveRx section; read-out: β-arrestin2 EC50
Sequence (P30556 whole entry): as above
Reported Property: EC50 (nM)
Kindly provide the numeric value in nM only, without the unit symbol.

[
  {
    "Molecule": "CCCCC(=O)N(Cc1ccc(-c2cc(-c3cc(C)ccn3)ccc2-c2nn[nH]n2)cc1)[C@H](C(=O)O)C(C)C [Example 445]",
    "Experimental System": "hAT1R (Homo sapiens)",
    "Unit Abbreviation": "nM",
    "EC50": 36
  }
]

In plain terms, CCOc1nc2cccc(C(=O)O)c2n1Cc1ccc(-c2cc(N3CCC[C@@H](C)C3)ccc2-c2noc(=O)[nH]2)cc1 [Example 325] has a documented EC50 of 201

In plain terms, Cc1nc(C)n(Cc2ccc(-c3cc(-c4ccccc4)ccc3-c3nn[nH]n3)cc2)n1 [Example 456] has a documented EC50 of 1970

In plain terms, CCc1nc2c(C)cc(C)nc2n1Cc1ccc(-c2cc(-n3cc(C)cn3)ccc2-c2nnn[nH]2)cc1 [Example 217] has a documented EC50 of 3

---

Each entry below carries its recorded BRET β-Arrestin2 High AT1R Expression Ymax (%).
biological target: UniProt:P30556; experiment: BRET β-arrestin2 biosensor assay, higher receptor expression (hAT1R 5 ng/well), HEK293 cells; format: cell-based
Kindly provide the numeric value in % only, without the unit symbol.

Some compounds with recorded BRET β-Arrestin2 High AT1R Expression Ymax (%):
[
  {
    "Molecule": "CCc1nc2c(C)cc(C)nc2n1Cc1ccc(-c2cc(N3CCC(OC)CC3)ccc2-c2nn[nH]n2)cc1",
    "Observed Value": 29.1
  },
  {
    "Molecule": "CCCCC(=O)N(Cc1ccc(-c2cc(-c3ccccc3)ccc2-c2nn[nH]n2)cc1)C(C)(C)C(=O)O",
    "Observed Value": 73.8
  },
  {
    "Molecule": "CCc1nc2c(C)cc(C)nc2n1Cc1ccc(-c2cc(-c3ccccc3O)ccc2-c2nn[nH]n2)cc1",
    "Observed Value": 86.9
  }
]

In plain terms, CCc1nc2c(C)cc(C)nc2n1Cc1ccc(-c2cc(C3CCCCC3)ccc2-c2nn[nH]n2)cc1 has a documented BRET β-Arrestin2 High AT1R Expression Ymax (%) of 86.6

In plain terms, CCCCc1ncc(C(=O)NCCOC(C)C)n1Cc1ccc(-c2cc(-c3ccccc3)ccc2-c2nn[nH]n2)cc1 has a documented BRET β-Arrestin2 High AT1R Expression Ymax (%) of 63.3

In plain terms, CCCCC1=NC2(CCCC2)C(=O)N1Cc1ccc(-c2cc(N3CCC(C)CC3)ccc2-c2nn[nH]n2)cc1 has a documented BRET β-Arrestin2 High AT1R Expression Ymax (%) of 19.4

In plain terms, CCCCc1nc(Cl)c(C(=O)O)n1Cc1ccc(-c2cc(-c3ccc(C(=O)N(C)C)cc3)ccc2-c2noc(=O)[nH]2)cc1 has a documented BRET β-Arrestin2 High AT1R Expression Ymax (%) of 88.7
